# System: Endogenous Huntingtin Protein
# protocol_description: Endogenous Huntingtin Protein Assay (ELISA-based MSD electrochemiluminescence)
# Type: cell-based
# condition_parameters: Table 1
pIC50: −log10 of the molar value.
measured_parameter: pIC50

Worked cases, pIC50 given:
> print(dat)
                                   molecule  value.measured
1  CN(c1nc2cnc(-c3cc(C#N)c4nn(C)cc4c3)nc2s1)C1CC(C)(C)NC(C)(C)C1          ≥ 7.00
2  Cc1cn2cc(-c3ncc4nc(N(C)C5CC6(C)CC[C@](C)(C5)N6)sc4n3)cc(C#N)c2n1 (some centres unmarked)          ≥ 7.00
3  CC1CC(N(C)c2nc3ccc(-c4ccc5nn(C)cc5c4)cc3s2)CCN1 (centres unmarked)    6.30 to 7.00
4  Oc1cc(-c2c[nH]nc2F)ccc1-c1cc2sc(N3CC4(CNC4)C3)nc2nn1    6.30 to 7.00
5  Cc1cn2cc(-c3cc4sc(N(C)C5CC6CCCC(C5)N6)nc4cn3)cc(C)c2n1 (centres unmarked)          ≥ 7.00
6  COc1cc(-c2cc(F)c3nc(C4CCNCC4)sc3c2)ccc1F    5.52 to 6.00

Prompt: Notebook: pull reported pIC50 for Endogenous Huntingtin Protein, entry CN(c1nc2cnc(-c3cc(C#N)c4nn(C)cc4c3)cc2s1)C1CCNCC1
Response: ≥ 7.00

Prompt: Which pIC50 is reported with Endogenous Huntingtin Protein for this entry: Cc1cn2nc(-c3ccc4nc(C5CCNCC5)sc4c3)ccc2n1 ?
Response: ≥ 7.00

Prompt: For Endogenous Huntingtin Protein, provide pIC50 of CN(c1nc2ccc(-c3cc(C#N)c4nn(C)cc4c3)cc2s1)C1CC(C)(C)NC(C)(C)C1 please.
Response: ≥ 7.00

Prompt: # value lookup — system Endogenous Huntingtin Protein, readout pIC50, item CN(c1nc2c(F)cc(-c3cc(C#N)c4nn(C)cc4c3)cc2s1)C1CC(C)(C)NC(C)(C)C1
Response: ≥ 7.00

Prompt: Item Cn1cc2cc(-c3ccc4nc(N5CCC(N)CC5)sc4c3)ccc2n1 with Endogenous Huntingtin Protein - pIC50?
Response: 5.52 to 6.00

Prompt: Which pIC50 is reported with Endogenous Huntingtin Protein for this entry: CN(c1nc2nnc(-c3ccc(-c4cn[nH]c4)cc3O)cc2s1)C1CCN(CCF)CC1 ?
Response: ≥ 7.00

Prompt: # get_value(readout= pIC50, system= Endogenous Huntingtin Protein) for Cc1cn2nc(-c3cc(F)c4nc(C5CCN(C)CC5)sc4c3)ccc2n1
Response: ≥ 7.00

Prompt: Test system Endogenous Huntingtin Protein; read-out pIC50; what value for Cc1cn2cc(-c3ncc4nc(N(C)C5CC6(C)CCC(C)(C5)N6)sc4n3)cc(F)c2n1 (centres unmarked) ?
Response: ≥ 7.00

Prompt: GET /values?readout=pIC50&system=Endogenous Huntingtin Protein&item= Cc1cn2cc(-c3cc(F)c4nc(C5=CCNCC5)sc4c3)cc(C)c2n1
Response: 6.30 to 7.00

Prompt: Notebook entry, Endogenous Huntingtin Protein assay: pIC50 of Cn1cc2cc(-c3cc4sc(NC5CC6CCC(C5)N6)nc4cn3)cc(C#N)c2n1 (centres unmarked) = ?
Response: ≥ 7.00

Prompt: Notebook: pull reported pIC50 for Endogenous Huntingtin Protein, entry Cc1cn2cc(-c3cc4sc(N[C@@H]5C[C@H]6CC[C@@H](C5)N6C)nc4cn3)cc(F)c2n1
Response: 6.30 to 7.00
